These data points were gathered from patent US20100111959A1.

Molecular target: human IL-13 R130Q variant (R110Q of the mature chain) (human) (UniProt P35225)
Test: Biacore SPR, mAb from HEK293
pKd: −log10 of the molar value.
quantity-kind: pKd

[[record]]
binder = "mAb Lc-2B03 + Hc2 M34V, M100L (antibody, human IgG1, V domains shown) VH: QVTLKESGPVLVKPTETLTLTCTVSGFSLSTYGVGVGWIRQPPGKALEWLAHIWWDDVKRYNPALKSRLTISKDTSKSQVVLTMTNMDPVDTATYYCARLGSDYDVWFDYWGQGTLVTVSS VL: EIVLTQSPATLSLSPGERATLSCRASKSISKYLAWYQQKPGQAPRLLIYSGSTLQSGIPARFSGSGSGTDFTLTISSLEPEDFAVYYCQQHDYPYTFGQGTKLEIKR"
quantity_kind = "pKd"
value_measured = 10.79

